biological target: mNdK (nucleoside diphosphate kinase) (Mycobacterium tuberculosis)
Sequence (P9WJH7 whole entry): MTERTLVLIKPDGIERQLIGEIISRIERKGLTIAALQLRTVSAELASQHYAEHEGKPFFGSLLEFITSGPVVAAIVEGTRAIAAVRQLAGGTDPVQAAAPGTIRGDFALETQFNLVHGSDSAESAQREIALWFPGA
pKi: −log10 of the molar value.
measure: pKi

Nc1nc2c(ncn2[C@@H]2O[C@H](COP(=O)(O)OP(=O)(O)O)[C@@H](O)[C@H]2O)c(=O)[nH]1
~2.72
